Provide the recorded IC50 for the entries that follow.
Target: MAGL (recombinant wild-type) (Homo sapiens)
Sequence (Q99685 1-303): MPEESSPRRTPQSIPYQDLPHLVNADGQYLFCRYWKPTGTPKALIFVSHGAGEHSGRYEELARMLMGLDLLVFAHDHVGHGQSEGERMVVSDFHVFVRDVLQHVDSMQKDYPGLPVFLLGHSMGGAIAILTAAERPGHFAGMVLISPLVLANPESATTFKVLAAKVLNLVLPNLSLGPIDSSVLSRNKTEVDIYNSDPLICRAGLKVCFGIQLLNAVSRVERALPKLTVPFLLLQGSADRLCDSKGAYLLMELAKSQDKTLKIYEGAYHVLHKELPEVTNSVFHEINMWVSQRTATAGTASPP
Test: 4-NPA assay: MAGL inhibitory activity by hydrolysis of 4-nitrophenylacetate, absorbance at 405 nm
Details: 4-NPA assay (values without footnote [a])
Entry rule: numbers only, all in nM.

Request: # query: IC50 of entry O=C1COc2ccc(C(=O)N3CCC(C(c4ccc(F)cc4)c4ccc(OCCOCCF)cc4)CC3)cc2N1 (single isomer, unassigned) [Example 108]
Result: 9.6

Request: # query: IC50 of entry COc1cccc(C(c2ccc(F)cc2)C2CCN(C(=O)c3ccc4c(c3)NC(=O)CO4)CC2)c1 (single isomer, unassigned) [Example 120]
Result: 0.6

Request: # query: IC50 of entry O=C1COc2ccc(C(=O)N3CCC(C(c4ccccc4)c4ccc(Cl)c(Cl)c4)CC3)cc2N1 (stereo not shown) [Example 4]
Result: 0.69

Request: # query: IC50 of entry Cc1ccc(C(c2ccc(F)cc2)C2CCN(C(=O)c3ccc4c(c3)NC(=O)CO4)CC2)cc1 (single isomer, unassigned) [Example 112]
Result: 0.3

Request: # query: IC50 of entry O=C1COc2ccc(C(=O)N3CCC(C(c4ccccc4)c4cccc(OCCF)c4)CC3)cc2N1 (stereo not shown) [Example 72]
Result: 0.55

Request: # query: IC50 of entry O=C1COc2ccc(C(=O)N3CCN(c4ccc(C(F)(F)F)cn4)CC3)cc2N1 [Example 90]
Result: 2220

Request: # query: IC50 of entry O=C1COc2ccc(C(=O)N3CCC(n4cnc5ccccc54)CC3)cc2N1 [Example 49]
Result: 5540

Hello, the source for this data is patent US11420961B2, in case you need it.
